Tested on: E. coli
Experiment: Competitive inhibition of ALP binding to bacteria by added protein (Example 3, Table 2)
Details: protein 2-40 μg added with ALP 2 μg
metric: inhibition of the binding of ALP by bacteria

Query: State, in one line, measured inhibition of the binding of ALP by bacteria of Bikunin: urinary trypsin inhibitor with two glycoconjugate chains and two Kunitz inhibitor domains (protein, UniProt P02760 206-352, looked up, Inter-alpha-trypsin inhibitor light chain) Inter-alpha-trypsin inhibitor …: AVLPQEEEGSGGGQLVTEVTKKEDSCQLGYSAGPCMGMTSRYFYNGTSMACETFQYGGCMGNGNNFVTEKECLQTCRTVAACNLPIVRGPCRAFIQLWAFDAVKGKCVLFPYGGCQGNGNKFYSEKECREYCGVPGDGDEELLRFSN
Response: >90%
